Measured values drawn from ChEMBL document CHEMBL4368907 for this set.

Test system: Sus scrofa
Experiment: Anti-obesity activity in lean Landrace Yorkshire Duroc pig assessed as food intake at 30 nmol/kg, sc measured at 72 to 96 hrs post dose (reference value: 1.8 to 2.1 kg)
Assay type: functional
Numbered stars: 1 amine (or outer) side, 2 acyl side, 3 side chain; on linkers, the order of the positions; unused ones are H or OH. Square brackets hold non-standard residues; d marks the D form. Peptide text beside a SMILES is read from it. * marks the point of attachment. Phe(4-CH2SO3H) = N[C@@H](Cc1ccc(CS(=O)(=O)O)cc1)C(=O)O; sY = N[C@@H](Cc1ccc(OS(=O)(=O)O)cc1)C(=O)O; C18 diacid = O=C(O)CCCCCCCCCCCCCCCCC(=O)*; γGlu = O=C(O)[C@H](CCC(=O)[*:2])N[*:1]; NMeF = CN[C@@H](Cc1ccccc1)C(=O)O; dNMeD = CN[C@H](CC(=O)O)C(=O)O; Nle = CCCC[C@H](N)C(=O)O; AEEA = NCCOCCOCC(=O)O
Activity values, listed per item
API: value field is a number in kg; no unit string.

{"COMPOUND": "CCCC[C@H](NC(=O)[C@H](Cc1ccc(CS(=O)(=O)O)cc1)NC(=O)[C@H](CC(=O)O)NC(=O)COCCOCCNC(=O)[C@H](CCCCN)NC(=O)COCCOCCNC(=O)COCCOCCNC(=O)CC[C@H](NC(=O)CCCCCCCCCCCCCCCCC(=O)O)C(=O)O)C(=O)NCC(=O)N[C@@H](Cc1c[nH]c2ccccc12)C(=O)N[C@@H](CCCC)C(=O)N(C)[C@H](CC(=O)O)C(=O)N(C)[C@@H](Cc1ccccc1)C(N)=O ({C18 diacid-γGlu-AEEA-AEEA}-K[AEEA]D[Phe(4-CH2SO3H)][Nle]GW[Nle][dNMeD][NMeF]-NH2)", "Activity (kg)": 1.8}

Could you now consider this next compound?
Look up Activity: CC(C)C[C@H](NC(=O)[C@H](Cc1ccc(OS(=O)(=O)O)cc1)NC(=O)[C@H](CC(=O)O)NC(=O)COCCOCCNC(=O)COCCOCCNC(=O)CC[C@H](NC(=O)CCCCCCCCCCCCCCCCC(=O)O)C(=O)O)C(=O)NCC(=O)N[C@@H](Cc1c[nH]c2ccccc12)C(=O)N[C@@H](CCC(N)=O)C(=O)N(C)[C@H](CC(=O)O)C(=O)N(C)[C@@H](Cc1ccccc1)C(N)=O ({C18 diacid-γGlu-AEEA-AEEA}-D[sY]LGWQ[dNMeD][NMeF]-NH2)
1.8

###

Molecular target: Gastrin/cholecystokinin type B receptor (Homo sapiens)
Sequence (whole entry): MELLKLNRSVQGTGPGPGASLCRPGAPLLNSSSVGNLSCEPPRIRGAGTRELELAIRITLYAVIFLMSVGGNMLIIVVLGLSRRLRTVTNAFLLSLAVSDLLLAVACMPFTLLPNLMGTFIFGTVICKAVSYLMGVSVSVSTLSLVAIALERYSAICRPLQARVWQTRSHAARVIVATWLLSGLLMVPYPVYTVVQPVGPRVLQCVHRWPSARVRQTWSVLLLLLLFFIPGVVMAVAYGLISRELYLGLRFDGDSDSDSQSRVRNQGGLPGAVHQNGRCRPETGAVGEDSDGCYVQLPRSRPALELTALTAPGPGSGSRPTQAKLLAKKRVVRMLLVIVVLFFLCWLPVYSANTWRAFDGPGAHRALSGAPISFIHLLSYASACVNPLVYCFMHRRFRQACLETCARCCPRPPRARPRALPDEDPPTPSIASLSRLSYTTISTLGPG
Test: Displacement of [125I]-CCK-8 from human CCK2R expressed in human 1321N1 cell membranes after 2 hrs by SPA assay
Activity calls are given as the source filed them. The rule behind the calls is not given here. Numbered stars: 1 amine (or outer) side, 2 acyl side, 3 side chain; on linkers, the order of the positions; unused ones are H or OH. Square brackets hold non-standard residues; d marks the D form. Peptide text beside a SMILES is read from it. * marks the point of attachment. sY = N[C@@H](Cc1ccc(OS(=O)(=O)O)cc1)C(=O)O; C18 diacid = O=C(O)CCCCCCCCCCCCCCCCC(=O)*; γGlu = O=C(O)[C@H](CCC(=O)[*:2])N[*:1]; Nle = CCCC[C@H](N)C(=O)O; AEEA = NCCOCCOCC(=O)O
Select the matching outcome among 1 (yes) (active), 0 (no) (inactive)

Field: example entries. Status: answers known.
{"COMPOUND": "CCCC[C@H](NC(=O)[C@H](Cc1ccc(OS(=O)(=O)O)cc1)NC(=O)[C@H](CC(=O)O)NC(=O)COCCOCCNC(=O)COCCOCCNC(=O)CC[C@H](NC(=O)CCCCCCCCCCCCCCCCC(=O)O)C(=O)O)C(=O)NCC(=O)N[C@@H](Cc1c[nH]c2ccccc12)C(=O)N[C@@H](CC(C)C)C(=O)N[C@@H](CC(=O)O)C(=O)N[C@@H](Cc1ccccc1)C(N)=O", "ASSIGNED_LABEL": "1 (yes)"}
{"COMPOUND": "CCCC[C@H](NC(=O)[C@H](Cc1ccc(OS(=O)(=O)O)cc1)NC(=O)[C@H](CC(=O)O)NC(=O)COCCOCCNC(=O)COCCOCCNC(=O)CC[C@H](NC(=O)CCCCCCCCCCCCCCCCC(=O)O)C(=O)O)C(=O)NCC(=O)N[C@@H](Cc1c[nH]c2ccccc12)C(=O)N[C@@H](CCC(=O)O)C(=O)N[C@@H](CC(=O)O)C(=O)N[C@@H](Cc1ccccc1)C(N)=O ({C18 diacid-γGlu-AEEA-AEEA}-D[sY][Nle]GWEDF-NH2)", "ASSIGNED_LABEL": "0 (no)"}

Test call for this compound, please: CCCC[C@H](NC(=O)[C@H](Cc1ccc(OS(=O)(=O)O)cc1)NC(=O)[C@H](CC(=O)O)NC(=O)COCCOCCNC(=O)COCCOCCNC(=O)CC[C@H](NC(=O)CCCCCCCCCCCCCCCCC(=O)O)C(=O)O)C(=O)NCC(=O)N[C@@H](Cc1c[nH]c2ccccc12)C(=O)N[C@@H](C)C(=O)N[C@@H](CC(=O)O)C(=O)N[C@@H](Cc1ccccc1)C(N)=O ({C18 diacid-γGlu-AEEA-AEEA}-D[sY][Nle]GWADF-NH2)
0 (no)
